condition: in isopentanol, 288.17 K
measure: solubility (mole fraction)
Just the number.

Query C[C@H]1[C@H](OC(=O)CCC(=O)O)O[C@@H]2O[C@@]3(C)CC[C@H]4[C@H](C)CC[C@@H]1[C@@]24OO3 yields solubility (mole fraction) of 0.00721

====

condition: in n-pentanol, 298.5 K
measure: solubility (mole fraction)
Just the number.

Query C[C@H]1[C@H](OC(=O)CCC(=O)O)O[C@@H]2O[C@@]3(C)CC[C@H]4[C@H](C)CC[C@@H]1[C@@]24OO3 yields solubility (mole fraction) of 0.0216

====

condition: in methyl propionate, 298.17 K
measure: solubility (mole fraction)
Just the number.

Query C[C@H]1[C@H](OC(=O)CCC(=O)O)O[C@@H]2O[C@@]3(C)CC[C@H]4[C@H](C)CC[C@@H]1[C@@]24OO3 yields solubility (mole fraction) of 0.0286

Just for reference, BigSolDB 2.1 is where these values come from.
